B1: FAM9B (parent)
chain: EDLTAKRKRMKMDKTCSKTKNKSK

- Variants of: B1
- PROCEDURE_SUMMARY: protein stability index of a GFP-peptide fusion (GPS, HEK-293T) (PSI 1-6); higher = more stable;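 note: lentivirally expressed fusions sorted by FACS into six bins by GFP to DsRed ratio, PSI derived from sequencing read proportions per bin multiplied by bin number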
- DETAILS: c terminus: a fixed tail appended

{"columns": ["MUTANT_LABEL", "protein stability index"],
 "data": [
  ["R9V", 5.09],
  ["K8H", 4.97],
  ["K8A", 4.94],
  ["A5H", 5.05],
  ["R9M", 5.07],
  ["K24R", 5.06],
  ["D2Q", 5.04],
  ["K6R", 5.33],
  ["K24G", 4.19],
  ["K11E", 5.29],
  ["K8T", 4.97],
  ["M12S", 5.9],
  ["K11I", 4.47],
  ["T15W", 4.78],
  ["K24S", 4.43],
  ["K18T", 4.89],
  ["K22L", 4.39],
  ["K20M", 4.57],
  ["K14Q", 4.99],
  ["R9G", 4.9],
  ["K20N", 4.87],
  ["K11H", 5.38],
  ["R9C", 5.05],
  ["A5F", 4.42],
  ["K24A", 5.14],
  ["K8V", 5.13],
  ["T15V", 4.9],
  ["L3D", 5.5],
  ["R9N", 5.38],
  ["S23H", 4.53],
  ["K18E", 5.6],
  ["S23V", 5.27],
  ["K8P", 5.5],
  ["E1Q", 4.99],
  ["K6C", 4.78],
  ["D2T", 4.92],
  ["D13P", 4.66],
  ["A5L", 5.37],
  ["K6Q", 5.12],
  ["E1D", 5.32],
  ["K6H", 5.37],
  ["M10H", 5.43],
  ["M10W", 4.96],
  ["D2C", 4.11],
  ["T15D", 4.91],
  ["L3H", 5.43]
]}

meta.source: the supplement of paper PMC10567573
